- test-target: human CD28 (human, UniProt P10747 19-220, On cells CD28 is a disulfide linked homodimer and a glycoprotein; one copy of the chain is given.)
- Sequence (P10747 19-220 limits assumed): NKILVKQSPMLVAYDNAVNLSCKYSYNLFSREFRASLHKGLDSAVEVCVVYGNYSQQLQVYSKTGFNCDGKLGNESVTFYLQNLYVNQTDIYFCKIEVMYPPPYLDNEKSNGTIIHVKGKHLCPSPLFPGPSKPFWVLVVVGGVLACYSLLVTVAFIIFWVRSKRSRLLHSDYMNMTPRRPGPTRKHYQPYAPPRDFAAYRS
- assay-overview: cell-based or functional assay
metric-name: Division Index (no anti-CD3)
Numbers only.

- exemplary anti-CD28 antibody AB2 (antibody, V domains shown, Mouse hybridoma monoclonal antibody; also called antibody 2; clone 2) VH: QVQLQQPGSELMRPGASVKLSCKASGYTFTSYWMHWVKQRHGQGLEWIGNIYPGSGRTIYDEKFKSKATLTVDTSSSTAYMHLSSLTSEDSAVFYCTRSHYGSSFDAMDYWGQGTSVTVSS VL: DIQVNQSPSSLSASLGDTITITCHASQNIYVWLNWYQQKPGNIPKLLIYKASNLHTGVPSRFSGSGSGTGFTLTISSLQPEDIATYYCQQGQSYPWTFGGGTKLEIK: 1.49

Quick request: Division Index (no anti-CD3) for each listed item, please.
1. exemplary anti-CD28 antibody AB6 (antibody, V domains shown, Mouse hybridoma monoclonal antibody; Conjugated to PE in the staining assays; also called antibody 6; clone 6) VH: KVQLQQSGAGLVKPGASVKLSCKTSGYTFSDYIINWVKQRSGQGLEWIGWFYPGSGSINYNEKFKDKATLTADKSSSTVYMDLSRLTSEDSAVYFCARREDRGGYDAFDYWGQGTTLTVSS VL: DIQMTQSPASLSVSVGETVTITCRASENIYSNLAWYQQKQGKSPQLLVYAATKLADGVPSRFSGSGSGTQYSLRINSLQSEDFGSYYCQHFWGTPWTFGGGTKLEIK
2. exemplary anti-CD28 antibody AB7 (antibody, V domains shown, Mouse hybridoma monoclonal antibody; Conjugated to PE in the staining assays; also called antibody 7; clone 7) VH: KVQLQQSGAGLVKPGASVKLSCKASGYTFSDYIINWVKQRSGQGLEWIGWFYPGSGSINYNEKFKDKATLTADKSSSTVYMDLSRLTSEDSAVYFCARREDRGGYDAFDYWGQGTTLTVSS VL: DIQMTQSPASLSVSVGETVTITCRTSENIYSNLAWYQQKQGKSPQLLVYAATKLADGVPSRFSGSGSGTQYSLRINSLQPEDFGSYYCQHFWGTPWTFGGGTKLEIK

1. 0.0047
2. 0.014
